test system: SNB-75 CNS; experiment: NCI tumour cell line growth inhibition, 48 h
This section presents compounds with their documented TGI values.

Known TGI results, listed for orientation:
C/C(N)=N/OCc1nc(C)no1 : > 100 µM
O=C1CSC(c2ccccc2O)N1c1ccc(Oc2ccc(Cl)cc2)c(Cl)c1 (configuration not stated) : 47.3 µM

Missing value: TGI, SNB-75 CNS, entry COc1ccc2nc3cc(Cl)ccc3c(N3CCN(c4ccnc(N5CCN(C)CC5)n4)CC3)c2c1 . Fill in?
3.05 µM

Could you do the same for FC(F)(F)c1cccnc1Sc1nc2ccccc2s1 , please?
> 100 µM

Could you do the same for COc1ccc(COc2cc3oc(=O)c4cc(C(C)O)ccc4c3cc2OC)cc1 (configuration not stated) , please?
11.1 µM

Could you do the same for O=C(O)C12CC3CC(C1)C2C=C3P(=O)(O)O (configuration not stated) , please?
> 100 µM

Could you do the same for COc1ccc(OC)c(Cc2cnc3nc(N)nc(N)c3c2C)c1 , please?
21.3 µM
